FYI, the data here is from patent US4443438A.

Assay name: Fish toxicity to carps, TLm48 (Experimental example 6)
Assay type: in vivo
Test context: carp, in vivo, as 0.1% dust, read-out: TLm48 (ppm)
Measured endpoint: LC50 at 48 h

Req: Kindly indicate its recorded LC50 at 48 h. Item: CC1(C)[C@H](C=C(Cl)Cl)[C@H]1C(=O)OC(C#N)c1cccc(Oc2ccc(Br)cc2)c1 (relative stereo) [Compound of the formula (I) [dl(acid moiety)-trans isomer]]
Resp: > 5 µg/mL

###

List of LD50 at 24 h values.
Assay name: in vivo
Test context: mouse, po

[
  {
    "Molecule": "COP(=S)(OC)Oc1ccc([N+](=O)[O-])c(C)c1",
    "LD50 at 24 h": "> 1000 mg/kg"
  },
  {
    "Molecule": "CC1(C)C(C=C(Cl)Cl)C1C(=O)OC(C#N)c1cccc(Oc2ccc(Br)cc2)c1 (racemic)",
    "LD50 at 24 h": "> 2000 mg/kg"
  }
]

Req: Consider the molecule CC1(C)[C@H](C=C(Cl)Cl)[C@H]1C(=O)OC(C#N)c1cccc(Oc2ccc(Br)cc2)c1 (relative stereo) [Compound of the formula (I) [dl(acid moiety)-trans isomer]] . State its measured LD50 at 24 h.
Resp: > 2000 mg/kg

###

Reported LC50 at 48 h values are given for each entry in this list.
Assay name: Fish toxicity to carps, TLm48 (Experimental example 6)
Format: in vivo
Test context: carp, in vivo, as 0.3% dust, read-out: TLm48 (ppm)

// worked examples, LC50 at 48 h included
[
  {
    "Molecule": "CNC(=O)Oc1ccccc1OC(C)C [PHC, 2-Isopropoxyphenyl N-methylcarbamate]",
    "LC50 at 48 h": "> 5 µg/mL"
  },
  {
    "Molecule": "CC(C)OP(=O)(OC(C)C)SCc1ccccc1 [IBP, O,O-Diisopropyl S-benzylphosphorothioate]",
    "LC50 at 48 h": "> 5 µg/mL"
  }
]

Now for another entry.
Req: Write down LC50 at 48 h measured for item CCOP(=S)(OCC)Oc1cc(C)nc(C(C)C)n1 [Diazinon]
Resp: > 5 µg/mL
